# method: AUC (0 to 24 hrs) in male Crl:CD1(ICR) mouse at 1000 mg/kg administered for 6 months measured 24 hrs post last dose
# Assay type: ADME, organism-based
# Set-up: dose 1000 mg/kg, time < 24 hr
# experimental_conditions: in vivo
metric: AUC(0-t) at 24 h (µM·h)

• Cn1nccc1[C@H]1CCCC[C@@H]1Oc1cc(F)c(S(=O)(=O)Nc2ccncn2)cc1Cl = 65.9

###

# method: AUC (0 to 24 hrs) in male cynomolgus monkey at 1000 mg/kg administered for 9 months measured 24 hrs post last dose with 1 month recovery
# Format: ADME, organism-based, Macaca fascicularis
# Set-up: time < 24 hr, dose 1000 mg/kg
# experimental_conditions: in vivo
metric: AUC(0-t) at 24 h (µM·h)

• Cn1nccc1[C@H]1CCCC[C@@H]1Oc1cc(F)c(S(=O)(=O)Nc2ccncn2)cc1Cl = 146

###

# method: Clearance in cynomolgus monkey at 1 mg/kg, iv by LC-MS/MS analysis
# Type: ADME, organism-based, Macaca fascicularis
# experimental_conditions: in vivo
metric: clearance (L/h/kg)

- Cn1nccc1[C@H]1CCCC[C@@H]1Oc1cc(F)c(S(=O)(=O)Nc2ccncn2)cc1Cl: 0.393

###

# method: Tmax in male Crl:CD1(ICR) mouse at 1000 mg/kg administered for 6 months measured 24 hrs post last dose
# Assay type: ADME, organism-based
# experimental_conditions: in vivo
metric: Tmax (min)

• Cn1nccc1[C@H]1CCCC[C@@H]1Oc1cc(F)c(S(=O)(=O)Nc2ccncn2)cc1Cl = 30

###

# method: Cmax in male cynomolgus monkey at 1000 mg/kg administered for 9 months measured 24 hrs post last dose with 1 month recovery
# Type: ADME, organism-based, Macaca fascicularis
# Set-up: dose 1000 mg/kg
# experimental_conditions: in vivo
metric: Cmax (µM)

• Cn1nccc1[C@H]1CCCC[C@@H]1Oc1cc(F)c(S(=O)(=O)Nc2ccncn2)cc1Cl = 28.1

###

# method: Oral bioavailability in Sprague-Dawley rat at 1 mg/kg by LC-MS/MS analysis
# Assay type: ADME, organism-based
# experimental_conditions: in vivo
metric: bioavailability (%)

- Cn1nccc1[C@H]1CCCC[C@@H]1Oc1cc(F)c(S(=O)(=O)Nc2ccncn2)cc1Cl: 16

###

# method: Clearance in ddy mouse at 3 mg/kg, iv by LC-MS/MS analysis
# Format: ADME, organism-based
# experimental_conditions: in vivo
metric: clearance (mL/min/kg)

* Cn1nccc1[C@H]1CCCC[C@@H]1Oc1cc(F)c(S(=O)(=O)Nc2ccncn2)cc1Cl | 45.3

###

# method: Volume of distribution at steady state in ddy mouse at 1 mg/kg, iv by LC-MS/MS analysis
# Assay type: ADME, organism-based
# experimental_conditions: in vivo, read-out: Vdss
metric: Vd (L/kg)

* Cn1nccc1[C@H]1CCCC[C@@H]1Oc1cc(F)c(S(=O)(=O)Nc2ccncn2)cc1Cl [DS-1971] | 1.37

###

# method: AUC (infinity) in ddy mouse at 3 mg/kg, iv or po by LC-MS/MS analysis
# Assay type: ADME, organism-based
# experimental_conditions: in vivo
metric: AUC(0-inf)

* Cn1nccc1[C@H]1CCCC[C@@H]1Oc1cc(F)c(S(=O)(=O)Nc2ccncn2)cc1Cl [DS-1971] | 0.277 µM·h
